molecular target: Aurora A (Homo sapiens); construct: purchased Invitrogen PV3612; experiment: Aurora A Inhibition Assay (Z-Lyte); type: biochemical; conditions: 10 μM compound; read-out: Aurora A relative inhibition percentage at a dose of 10 μM
Sequence (O14965 whole entry): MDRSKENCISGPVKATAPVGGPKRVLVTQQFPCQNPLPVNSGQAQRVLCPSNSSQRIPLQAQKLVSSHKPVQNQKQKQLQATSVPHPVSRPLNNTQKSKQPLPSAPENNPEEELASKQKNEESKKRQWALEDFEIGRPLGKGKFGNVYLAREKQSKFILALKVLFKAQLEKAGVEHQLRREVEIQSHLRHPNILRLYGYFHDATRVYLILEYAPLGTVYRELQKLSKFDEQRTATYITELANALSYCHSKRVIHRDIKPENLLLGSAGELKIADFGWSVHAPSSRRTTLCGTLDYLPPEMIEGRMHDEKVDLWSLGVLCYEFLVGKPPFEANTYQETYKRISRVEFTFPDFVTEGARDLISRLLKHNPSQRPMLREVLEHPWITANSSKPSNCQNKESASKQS
reported endpoint: inhibition at 10 µM

Check out these entries, answers already filled in.
The compound O=C1Nc2ccc(C(=O)Nc3ccccc3)cc2/C1=C\c1ccc2cn[nH]c2c1 showed inhibition at 10 µM equal to > 50%

The compound CN(C)Cc1ccc(/C=C/c2n[nH]c3cc(C=C4C(=O)Nc5ccccc54)ccc23)cc1 (mixture of isomers) [Example A106, 2,2,2-trifluoroacetate] showed inhibition at 10 µM equal to > 50%

The compound CC(=O)Nc1ccc2c(c1)NC(=O)/C2=C/c1ccc2cn[nH]c2c1 showed inhibition at 10 µM equal to > 50%

Further cases:
The compound CC(C)(C)OC(=O)Nc1ccc2c(c1)NC(=O)/C2=C/c1ccc2cn[nH]c2c1 showed inhibition at 10 µM equal to < 50%

###

Recorded IC50 values (PLK1 (Homo sapiens)) are given below.

Check out these entries, answers already filled in.
The compound Nc1ccc2c(c1)NC(=O)/C2=C/c1ccc2cn[nH]c2c1 [Example A38, 2,2,2-trifluoroacetate] showed IC50 equal to 5 to 50 µM

The compound O=C1Nc2ccc(OC(F)(F)F)cc2/C1=C\c1ccc2nn[nH]c2c1 showed IC50 equal to > 50 µM

The compound O=C1Nc2ccccc2/C1=C\c1ccc2[nH]ncc2c1 showed IC50 equal to 5 to 50 µM

State the recorded IC50 for every item in the following list.
1. CNC(=O)c1ccc2c(c1)NC(=O)C2=Cc1ccc2cn[nH]c2c1 (mixture of isomers)
2. O=C1Nc2ccccc2/C1=C\c1cc(-c2ccncc2)c2cn[nH]c2c1 [Example A54a]
3. CN1C(=O)/C(=C/c2ccc3nn[nH]c3c2)c2ccccc21

### Response
["< 5 µM", "> 50 µM", "> 50 µM"]

State the recorded IC50 for every item in the following list.
1. CC(=O)Nc1ccc2c(c1)/C(=C\c1ccc3nn[nH]c3c1)C(=O)N2
2. Nc1ccc2c(c1)/C(=C\c1ccc3cn[nH]c3c1)C(=O)N2 [Example A15, 2,2,2-trifluoroacetate]
3. CN(C)S(=O)(=O)Nc1ccc2c(c1)/C(=C\c1ccc3cn[nH]c3c1)C(=O)N2
4. CNC(=O)c1ccc2c(c1)/C(=C\c1ccc3cn[nH]c3c1)C(=O)N2
5. CC(=O)Nc1ccc2c(c1)NC(=O)/C2=C/c1ccc2[nH]ncc2c1
6. CN(C)S(=O)(=O)Nc1ccc2c(c1)/C(=C\c1ccc3nn[nH]c3c1)C(=O)N2
7. O=C1Nc2ccccc2/C1=C\c1ccc2[nH]nnc2c1
8. O=C1Nc2ccccc2C1=Cc1ccc2c(/C=C/c3ccccn3)n[nH]c2c1 (mixture of isomers)

### Response
5 to 50 µM
5 to 50 µM
< 5 µM
5 to 50 µM
5 to 50 µM
5 to 50 µM
5 to 50 µM
> 50 µM

State the recorded IC50 for every item in the following list.
1. O=C1Nc2cc(Cl)ccc2/C1=C\c1ccc2[nH]nnc2c1
2. O=C1Nc2ccccc2/C1=C\c1ccc2cn[nH]c2c1
3. Nc1cccc2c1NC(=O)/C2=C/c1ccc2cn[nH]c2c1
4. O=C1Nc2cc(-c3cccnc3)ccc2/C1=C\c1ccc2[nH]nnc2c1

### Response
1: 5 to 50 µM; 2: 5 to 50 µM; 3: > 50 µM; 4: > 50 µM

###

target: PLK2 (Homo sapiens); construct: purchased Invitrogen PV4204; experiment: PLK2 Inhibition Assay (Z-Lyte); format: biochemical; details: 10 μM compound; read-out: PLK2 relative inhibition percentage at a dose of 10 μM
Sequence (Q9NYY3 whole entry): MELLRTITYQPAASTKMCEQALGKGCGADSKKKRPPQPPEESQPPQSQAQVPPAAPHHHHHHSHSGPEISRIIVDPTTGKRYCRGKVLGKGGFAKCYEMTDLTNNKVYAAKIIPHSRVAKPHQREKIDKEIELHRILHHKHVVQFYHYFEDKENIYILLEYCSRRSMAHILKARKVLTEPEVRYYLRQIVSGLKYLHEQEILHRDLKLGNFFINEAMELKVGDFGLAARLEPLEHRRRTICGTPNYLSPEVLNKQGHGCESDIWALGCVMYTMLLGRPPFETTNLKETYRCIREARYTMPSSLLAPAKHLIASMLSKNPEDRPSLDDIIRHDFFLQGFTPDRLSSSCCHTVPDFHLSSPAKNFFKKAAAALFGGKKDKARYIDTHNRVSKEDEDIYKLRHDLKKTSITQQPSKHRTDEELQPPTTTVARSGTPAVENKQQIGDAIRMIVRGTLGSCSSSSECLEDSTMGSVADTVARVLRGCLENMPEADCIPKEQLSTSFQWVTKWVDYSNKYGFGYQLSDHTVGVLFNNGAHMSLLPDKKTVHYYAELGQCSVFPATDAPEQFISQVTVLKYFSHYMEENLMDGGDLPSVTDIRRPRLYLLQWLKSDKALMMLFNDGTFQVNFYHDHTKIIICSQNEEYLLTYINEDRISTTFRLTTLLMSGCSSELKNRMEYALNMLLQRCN
reported endpoint: inhibition at 10 µM

Check out these entries, answers already filled in.
The molecule COCn1nc(/C=C/c2ccncc2)c2ccc(/C=C3/C(=O)Nc4ccc(Br)cc43)cc21 showed inhibition at 10 µM equal to < 50%

The molecule COc1ccc2c(c1)C(=Cc1ccc3cn[nH]c3c1)C(=O)N2 (mixture of isomers) showed inhibition at 10 µM equal to > 50%

The molecule CN1CCN(c2ccc(/C=C/c3n[nH]c4cc(C=C5C(=O)Nc6ccccc65)ccc34)cn2)CC1 (mixture of isomers) showed inhibition at 10 µM equal to < 50%

State the recorded inhibition at 10 µM for every item in the following list.
1. O=C1Nc2ccccc2/C1=C\c1cc(Br)c2cn[nH]c2c1 [Example A53a]
2. O=C1Nc2ccccc2/C1=C\c1ccc2c(-c3cccs3)n[nH]c2c1
3. CCOC(=O)/C=C/c1n[nH]c2cc(/C=C3/C(=O)Nc4ccc(OC)cc43)ccc12

### Response
["> 50%", "< 50%", "< 50%"]

State the recorded inhibition at 10 µM for every item in the following list.
1. O=C1Nc2ccccc2/C1=C\c1ccc2c(/C=C/c3ccncc3)n[nH]c2c1
2. COc1ccc2c(c1)/C(=C\c1ccc3c(-c4ccc(N(C)C)nc4)n[nH]c3c1)C(=O)N2
3. O=C1Nc2ccc(Br)cc2/C1=C\c1ccc2c(/C=C/c3ccncc3)n[nH]c2c1
4. CCOC(=O)/C=C/c1n[nH]c2cc(C=C3C(=O)Nc4ncccc43)ccc12 (mixture of isomers)
5. O=C1Nc2ccc(F)cc2/C1=C/c1ccc2cn[nH]c2c1
6. O=C1Nc2ccccc2C1=Cc1ccc2c(-c3cncnc3)n[nH]c2c1 (mixture of isomers)
7. COc1ccc2c(c1)C(=Cc1ccc3c(/C=C/c4cccnc4)n[nH]c3c1)C(=O)N2 (mixture of isomers)
8. COc1ccc2c(c1)/C(=C\c1ccc3c(/C=C/c4ccncc4)n[nH]c3c1)C(=O)N2

### Response
> 50%
< 50%
< 50%
< 50%
< 50%
< 50%
< 50%
< 50%

State the recorded inhibition at 10 µM for every item in the following list.
1. CC(=O)Nc1ccc2c(c1)NC(=O)/C2=C/c1ccc2cn[nH]c2c1
2. O=C1Nc2c(F)cccc2/C1=C\c1ccc2cn[nH]c2c1

### Response
["< 50%", "> 50%"]

###

biological target: MEK1/MAP2K1 (Homo sapiens, UniProt Q02750); experiment: Kinase Selectivity Assay (CEREP, HTRF); format: biochemical; conditions: read-out: % Inhibition at 10 μM Concentration, MEK1/MAP2K1
Sequence (Q02750 whole entry): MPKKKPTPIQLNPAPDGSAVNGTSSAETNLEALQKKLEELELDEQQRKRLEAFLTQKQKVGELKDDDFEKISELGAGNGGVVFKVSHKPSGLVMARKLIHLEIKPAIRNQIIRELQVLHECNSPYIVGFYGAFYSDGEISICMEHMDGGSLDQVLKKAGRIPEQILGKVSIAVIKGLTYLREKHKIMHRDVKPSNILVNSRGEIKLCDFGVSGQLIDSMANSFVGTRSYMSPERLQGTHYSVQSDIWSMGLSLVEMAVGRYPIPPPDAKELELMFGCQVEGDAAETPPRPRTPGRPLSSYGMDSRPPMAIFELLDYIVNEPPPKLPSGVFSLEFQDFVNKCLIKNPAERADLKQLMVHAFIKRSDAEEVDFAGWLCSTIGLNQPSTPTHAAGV
reported endpoint: inhibition at 10 µM (%)
Answers are plain numbers, in %.

The compound O=C1Nc2ccccc2C1=Cc1ccc2c(/C=C/c3ccccn3)n[nH]c2c1 (mixture of isomers) showed inhibition at 10 µM equal to 46

State the recorded inhibition at 10 µM for every item in the following list.
1. O=C1Nc2ccccc2/C1=C\c1ccc2[nH]nnc2c1
2. O=C1Nc2ccccc2/C1=C\c1ccc2cn[nH]c2c1
3. COc1ccc2c(c1)C(=Cc1ccc3c(-c4ccc(N5CCN(C)CC5)nc4)n[nH]c3c1)C(=O)N2 (mixture of isomers)
4. O=C1Nc2ccccc2/C1=C\c1ccc2c(/C=C/c3ccccc3Cl)n[nH]c2c1

### Response
[20, 3, 9, 16]

###

For each entry below, report its inhibition at 10 µM value.
target: p38g kinase (Homo sapiens, UniProt P53778); assay: Kinase Selectivity Assay (CEREP, HTRF); type: biochemical; conditions: read-out: % Inhibition at 10 μM Concentration, p38gamma
Sequence (P53778 whole entry): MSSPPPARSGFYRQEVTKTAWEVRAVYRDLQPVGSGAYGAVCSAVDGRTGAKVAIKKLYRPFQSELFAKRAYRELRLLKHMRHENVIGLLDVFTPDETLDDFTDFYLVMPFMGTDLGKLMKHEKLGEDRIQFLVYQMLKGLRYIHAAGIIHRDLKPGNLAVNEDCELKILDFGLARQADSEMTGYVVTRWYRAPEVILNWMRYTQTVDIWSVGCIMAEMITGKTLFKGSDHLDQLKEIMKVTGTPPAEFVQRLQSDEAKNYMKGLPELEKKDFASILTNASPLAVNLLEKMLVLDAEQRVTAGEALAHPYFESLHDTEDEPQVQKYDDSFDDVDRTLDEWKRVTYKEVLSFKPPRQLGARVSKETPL
One number for each entry, in %.

State the recorded inhibition at 10 µM for every item in the following list.
1. O=C1Nc2ccccc2C1=Cc1ccc2c(/C=C/c3ccccn3)n[nH]c2c1 (mixture of isomers)
2. COc1ccc2c(c1)C(=Cc1ccc3c(-c4ccc(N5CCN(C)CC5)nc4)n[nH]c3c1)C(=O)N2 (mixture of isomers)
3. O=C1Nc2ccccc2/C1=C\c1ccc2cn[nH]c2c1
4. O=C1Nc2ccccc2/C1=C\c1ccc2c(/C=C/c3ccccc3Cl)n[nH]c2c1
5. O=C1Nc2ccccc2/C1=C\c1ccc2[nH]nnc2c1

### Response
2
1
5
10
14

###

tested on: HCC1954 basal breast cancer cell line; assay: Cell growth inhibition, Sulforhodamine B assay (SRB); format: cell-based; settings: Homo sapiens, HCC1954, extended panel (Table 9), read-out: GI50 Range, HCC1954
reported endpoint: GI50

Check out these entries, answers already filled in.
The compound CN1CCN(c2ccc(/C=C/c3n[nH]c4cc(C=C5C(=O)Nc6ccccc65)ccc34)cn2)CC1 (mixture of isomers) showed GI50 equal to < 5 µM

The compound COc1ccc2c(c1)C(=Cc1ccc3c(-c4ccc(N5CCN(C)CC5)nc4)n[nH]c3c1)C(=O)N2 (mixture of isomers) showed GI50 equal to < 5 µM

State the recorded GI50 for every item in the following list.
1. O=C1Nc2ccccc2C1=Cc1ccc2c(/C=C/c3ccccn3)n[nH]c2c1 (mixture of isomers)
2. O=C1Nc2ncc(Br)cc2C1=Cc1ccc2c(/C=C/c3ccncc3)n[nH]c2c1 (mixture of isomers)

### Response
1. < 5 µM
2. > 50 µM
